Biological target: S100B (Homo sapiens)
Construct: made in house; host or cells: Escherichia coli BL21(DE3)
Sequence (P04271 whole entry): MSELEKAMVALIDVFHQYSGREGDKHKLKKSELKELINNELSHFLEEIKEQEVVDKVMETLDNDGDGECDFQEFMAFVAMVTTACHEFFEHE
Assay: Competition pull-down with native ligand RSK1 (689–735)
Type: binding
Conditions: H14 library; competitor peptide 200 µM; read-out: Surface mapping KD (apparent), competition
Each record is given Y if its reported Kd is strictly below 300 µM. Records at or above 300 µM are given N.

compound: CC[C@H](C)[C@@H](CC(=O)N[C@H]1CCCC[C@@H]1C(=O)N[C@H]1CCCC[C@@H]1C(=O)N[C@H](CC(=O)N[C@H]1CCCC[C@@H]1C(N)=O)[C@@H](C)O)NC(=O)[C@H]1CCCC[C@@H]1N [H14 IT]
assigned-class: N
--
compound: CSCC[C@@H](CC(=O)N[C@H]1CCCC[C@@H]1C(N)=O)NC(=O)[C@H]1CCCC[C@@H]1NC(=O)[C@H]1CCCC[C@@H]1NC(=O)C[C@@H](NC(=O)[C@H]1CCCC[C@@H]1N)C(C)C [H14 VM]
assigned-class: Y
--
compound: CC(C)[C@@H](CC(=O)N[C@H]1CCCC[C@@H]1C(=O)N[C@H]1CCCC[C@@H]1C(=O)N[C@@H](CCC(=O)O)CC(=O)N[C@H]1CCCC[C@@H]1C(N)=O)NC(=O)[C@H]1CCCC[C@@H]1N [H14 VE]
assigned-class: N
--
compound: CC(C)[C@@H](CC(=O)N[C@H]1CCCC[C@@H]1C(N)=O)NC(=O)[C@H]1CCCC[C@@H]1NC(=O)[C@H]1CCCC[C@@H]1NC(=O)C[C@H](Cc1ccccc1)NC(=O)[C@H]1CCCC[C@@H]1N [H14 FV]
assigned-class: Y
--
compound: CC(C)C[C@@H](CC(=O)N[C@H]1CCCC[C@@H]1C(=O)N[C@H]1CCCC[C@@H]1C(=O)N[C@@H](CCCNC(=N)N)CC(=O)N[C@H]1CCCC[C@@H]1C(N)=O)NC(=O)[C@H]1CCCC[C@@H]1N [H14 LR]
assigned-class: Y

Value source: paper PMC8162404
